# System: HOP-92
# experimental-details: NCI tumour cell line growth inhibition, 48 h
Active and inactive are the calls of the source. Cut-off read from the data, not from the text of the source: active = GI50 up to about 1.1 µM and inactive = higher.
Field: GI50. Provide a value for each of the molecules that follow.

Some solved cases for reference:
{"molecule": "COc1ccc2nc(-c3ccc(OC(=O)N(C)C)cc3)cn2c1", "measured-attribute": "GI50", "recorded-result": "> 100 µM (inactive)"}
{"molecule": "COc1ccc(C2C(C(=O)c3ccccc3)=C(O)C(O)(CC(=O)c3ccccc3)N2c2ccc(OC)cc2)cc1 (centres undefined)", "measured-attribute": "GI50", "recorded-result": "4.2 µM (inactive)"}

List the reported GI50 of each molecule below.
1. Nc1nc(Nc2ccccc2)sc1C(=O)c1ccc(Cl)cc1
2. CCC(C)CN1C(=O)NC(C)(Cc2ccccc2)C1=O (centres undefined)

1. 3.39 µM (inactive)
2. > 100 µM (inactive)

---

Could you please report measured GI50 for the items listed next?
# Tested on: HCC 2998
# experimental-details: NCI tumour cell line growth inhibition, 48 h
Activity calls are given as the source filed them. No stated cut-off is given here; in the data, active = GI50 up to about 1.1 µM and inactive = higher.

Field: example entries. Status: answers known.
{"molecule": "CCn1c2ccccc2c2cc(NC(=O)c3c(C)[nH]c(=O)[nH]c3=S)ccc21", "GI50": "47.6 µM (inactive)"}
{"molecule": "COc1ccc(-n2c(N)c(C#N)[nH]c2=O)cc1", "GI50": "> 10 µM (inactive)"}

State the recorded GI50 for every item in the following list.
1. Cc1cc(Cl)nc(Nc2nc3ccccc3[nH]2)n1
2. c1ccc2c(-c3cnc(-c4c[nH]c5ccccc45)cn3)c[nH]c2c1
3. CCNc1cc2c(cc1O)CC[C@@H]1[C@@H]2CC[C@]2(C)[C@@H](O)CC[C@@H]12
4. C=CCc1cccc2cc(C(=O)Nc3nc(C45CC6CC(CC(C6)C4)C5)cs3)c(=O)oc12
5. C[C@@]1(CO)[C@H](O)CC[C@@]2(C)[C@H]1CC[C@H]1C[C@@H]3C[C@@]12CC[C@@]3(O)COC(=O)CN

1: > 100 µM (inactive); 2: 42.6 µM (inactive); 3: 1.02 µM (active); 4: 33 µM (inactive); 5: 4.23 µM (inactive)

# batch size: 5; output GI50 per entry
1. Cc1cc(-c2ccccc2)nc(Nc2cc3ccccc3[nH]2)n1
2. FC(F)(F)c1nc2cc(SSc3cc4nc(C(F)(F)F)[nH]c4cc3Cl)c(Cl)cc2[nH]1
3. CCOC(=O)C/N=c1\nc(SC)sc2c(C(=O)OCC)nc(Sc3ccccc3)n12
4. NNC(=O)C(O)C(O)C(=O)NN (stereo not given)
5. COc1cc2ccnc3c2c(c1OC)N(C)C=C3

> 100 µM (inactive)
> 100 µM (inactive)
40.1 µM (inactive)
> 100 µM (inactive)
16.4 µM (inactive)

Here are 7 molecules. What values of GI50 were reported for them?
1. CCCCC(C(=O)C(=O)Nc1ccccc1CC)C(=O)C(C)C (stereo not given)
2. O=c1c2ccccc2[nH]c2c(O)ccc(O)c12
3. CCO[C@H]1O[C@@H]2OC3(C)CCC4[C@H](C)CCC([C@H]1C)[C@]42OO3 (stereo not given in full)
4. O=C1NCC(CSc2nc3cc(C4CCCc5c4[nH]c4ccccc54)ccc3o2)N1 (stereo not given)
5. CN(C)C(=O)OC1C(=O)N(C)c2ccc(Cl)cc2C2(c3ccccc3)N1C2(Cl)Cl (stereo not given)
6. COC(=O)C(N)CCCC(N)C(=O)NC(C)C(=O)NC(CCC(=O)NCCCNc1ccc([N+](=O)[O-])c2[nH]c3ccccc3c(=O)c12)C(N)=O (stereo not given)
7. CC1(C)OP(=O)(O)C=C1Sc1ccc([N+](=O)[O-])cc1[N+](=O)[O-]

1: > 100 µM (inactive); 2: > 100 µM (inactive); 3: 97.1 µM (inactive); 4: 95.1 µM (inactive); 5: > 100 µM (inactive); 6: 6.82 µM (inactive); 7: > 100 µM (inactive)

Batch of 8 molecules: report GI50 for each.
1. Oc1ncnc2c1nnn2CCCn1nnc2c(O)ncnc21
2. COc1ccc(C2=C(OC(C)=O)c3cccn3-c3ccc(Cl)cc3S2)cc1
3. COc1cc(/C=C2/SC(c3ccccc3)N(c3ccccc3)C2=O)cc(OC)c1OC (stereo not given)
4. O=C1Nc2ccc(Br)cc2/C1=C/C(=O)c1ccccc1
5. CCCCCCC(=O)C/C(=N/NC(N)=S)C(=O)NC1C2CC3CC(C2)CC1C3 (stereo not given)
6. O=c1nc(-c2ccccc2)c2c3c(cccn13)CCC2
7. O=C(c1ccccc1)n1c(Cc2ccccc2)nc2cc(C34CC5CC(CC(C5)C3)C4)ccc21
8. COc1ccc(C(O)C(c2ccc(OCc3ccccc3)cc2)c2ccc(OCc3ccccc3)cc2)cc1 (stereo not given)

["> 100 µM (inactive)", "5.43 µM (inactive)", "> 100 µM (inactive)", "15.1 µM (inactive)", "> 100 µM (inactive)", "> 100 µM (inactive)", "77.3 µM (inactive)", "> 100 µM (inactive)"]

Origin of the recorded values: ChEMBL document CHEMBL1201862
